# Test system: Echinochloa crus-galli
# protocol_description: Herbicidal activity by field soil treatment (Test example 2)
# Format: in vivo
# Parameters: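 index 0 to 10 in 10% steps of herbicidal effect with 10 meaning complete death and 0 below 10%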
# setup_conditions: 1000 g effective component per hectare, day 21 after the treatment
endpoint_label: herbicidal effect index, Echinochloa crus-galli

molecule_smiles: CCn1nc(C(=O)C2=C(O)CCCC2=O)c(=O)n(-c2ccccc2)c1=O
readout_value: 10
//
molecule_smiles: Cn1nc(C(=O)C2=C(O)CCCC2=O)c(=O)n(-c2cccc(Cl)c2)c1=O
readout_value: 10
//
molecule_smiles: Cn1nc(C(=O)C2=C(O)CCCC2=O)c(=O)n(-c2ccccc2Cl)c1=O
readout_value: 10
//
molecule_smiles: Cn1nc(C(=O)C2=C(O)CCCC2=O)c(=O)n(-c2ccccn2)c1=O
readout_value: 10
//
molecule_smiles: Cc1cccc(-n2c(=O)c(C(=O)C3=C(O)CCCC3=O)nn(C)c2=O)c1
readout_value: 10
//
molecule_smiles: CN(c1ccc(F)cc1)n1c(=O)c(C(=O)O)nn(C)c1=O
readout_value: 7
//
molecule_smiles: Cn1nc(C(=O)C2=C(O)CCCC2=O)c(=O)n(-c2ccccc2C(F)(F)F)c1=O
readout_value: 10
//
molecule_smiles: Cn1nc(C(=O)C2=C(O)CCCC2=O)c(=O)n(-c2ccc(Cl)c(Cl)c2)c1=O
readout_value: 9
//
molecule_smiles: Cn1nc(C(=O)C2=C(O)CCCC2=O)c(=O)n(-c2cccc(C(F)(F)F)c2)c1=O
readout_value: 10
